src = ChEMBL document CHEMBL1156967

- systemName: Mitogen-activated protein kinase 11 (Homo sapiens)
- Sequence (Q15759 whole entry): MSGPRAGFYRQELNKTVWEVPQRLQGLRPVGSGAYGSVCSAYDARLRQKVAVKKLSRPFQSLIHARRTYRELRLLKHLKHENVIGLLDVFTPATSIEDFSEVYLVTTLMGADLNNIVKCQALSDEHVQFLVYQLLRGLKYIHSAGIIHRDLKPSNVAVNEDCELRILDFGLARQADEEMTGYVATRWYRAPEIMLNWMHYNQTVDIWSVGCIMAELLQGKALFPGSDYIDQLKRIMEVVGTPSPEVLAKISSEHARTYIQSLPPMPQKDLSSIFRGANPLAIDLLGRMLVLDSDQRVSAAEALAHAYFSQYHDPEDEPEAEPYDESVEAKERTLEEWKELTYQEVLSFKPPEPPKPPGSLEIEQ
- assayInfo: Inhibition of p38beta assessed as gamma-[33P]ATP incorporation by scintillation counting
pIC50: −log10 of the molar value.
measure: pIC50

{"columns": ["smilesText", "pIC50"],
 "data": [
  ["OCCN1CCC(c2[nH]nc(-c3ccc(Cl)cc3)c2-c2ccncc2)CC1", 5.47],
  ["CN(C)CC(=O)N1CCC(c2[nH]nc(-c3ccc(Cl)cc3)c2-c2ccncc2)CC1", 5.17],
  ["Fc1ccc(-c2n[nH]c(C3CCNCC3)c2-c2ccncc2)cc1", 6.29],
  ["O[C@H]1CCC[C@@H]1N1CCC(c2[nH]nc(-c3ccc(Cl)cc3)c2-c2ccncn2)CC1", 5.47],
  ["OCCN1CCC(c2[nH]nc(-c3ccc(Cl)cc3)c2-c2ccncn2)CC1", 5.60],
  ["CS(=O)(=O)N1CCC(c2[nH]nc(-c3ccc(Cl)cc3)c2-c2ccncc2)CC1", 5.45]
]}

a = CN1CCC(c2[nH]nc(-c3cccc(C(F)(F)F)c3)c2-c2ccncc2)CC1
b = CC(=O)N1CCC(c2[nH]nc(-c3ccc(Cl)cc3)c2-c2ccncn2)CC1
c = COCCCN1CCC(c2[nH]nc(-c3ccc(Cl)cc3)c2-c2ccncc2)CC1
d = NS(=O)(=O)N1CCC(c2[nH]nc(-c3ccc(Cl)cc3)c2-c2ccncc2)CC1
Ranking field: pIC50; order: falling. I'd appreciate it if you listed the labels in the requested order. a, d, b, c
(a: 6.79, d: 5.78, b: 5.43, c: 5.18)

* * *

- systemName: Mitogen-activated protein kinase 11 (Homo sapiens)
- assayInfo: Inhibition of p38beta assessed as gamma-[33P]ATP incorporation by scintillation counting
measure: IC50 (µM)

{"columns": ["compound", "units", "IC50"],
 "data": [
  ["COCC(=O)N1CCC(c2[nH]nc(-c3ccc(Cl)cc3)c2-c2ccncn2)CC1", "µM", 3.25]
]}

1 = O=C(CO)N1CCC(c2[nH]nc(-c3ccc(Cl)cc3)c2-c2ccncc2)CC1
2 = O=C(O)CN1CCC(c2[nH]nc(-c3ccc(Cl)cc3)c2-c2ccncc2)CC1
Consider entries 1 and 2 . Which has the numerically lower IC50? Your choice should be expressed through its label. 1
(1: 1.79 µM, 2: 4.34 µM)

a = O=C(CO)N1CCC(c2n[nH]c(-c3ccc(Cl)cc3)c2-c2ccncn2)CC1
b = CN1CCC(c2[nH]nc(-c3ccc(Cl)cc3)c2-c2ccncn2)CC1
c = COCCN1CCC(c2[nH]nc(-c3ccc(Cl)cc3)c2-c2ccncc2)CC1
Arrange the 3 compounds from largest to smallest IC50. List the labels in the requested order. c, a, b

P = Cc1ccc(-c2n[nH]c(C3CCN(C)CC3)c2-c2ccncc2)cc1
Q = CN1CCC(c2[nH]nc(-c3ccc(F)cc3)c2-c2ccncc2)CC1
Returns: the argument ( P or Q ) having the larger IC50. Let me know the label of the one you choose. P
(P: 3.07 µM, Q: 1.96 µM)

* * *

- assayInfo: Intrinsic clearance in human liver microsomes
- Assay type: ADME, Microsome
measure: CLint scaled (mL/min/kg)

P = CS(=O)(=O)N1CCC(c2[nH]nc(-c3ccc(Cl)cc3)c2-c2ccncn2)CC1
Q = OCCN1CCC(c2[nH]nc(-c3ccc(Cl)cc3)c2-c2ccncc2)CC1
R = COCCN1CCC(c2[nH]nc(-c3ccc(Cl)cc3)c2-c2ccncc2)CC1
S = CC(=O)N1CCC(c2[nH]nc(-c3ccc(Cl)cc3)c2-c2ccncn2)CC1
I'd appreciate it if you sorted the entries above by their CLint scaled, lowest to highest. Please reply with the labels ordered as requested. Many thanks. S, P, Q, R
